Tested on: MS2 coat protein
Experiment: apparent KD of MS2 coat protein; higher = weaker reporter binding
Conditions: Eterna round: R107; input ligand: theophylline 20 uM
Reported apparent KD of MS2 coat protein values are given for each entry in this list.
Give just the numeric value; µM need not be written.

sequence_chain	apparent KD of MS2 coat protein / µM
AUGUCGUUGAAUACAGCGGCAUGGUGUGAUACCAGAAUGAUCAAAUUCCCUUGGCAGCAUCACAUGAGGAUCACCCAUGUUAAGG [SSTheo A #17]	0.05
GGUUAACAUGAGGAUCACCCAUGUCUUGAUACCAGUCGUUAUCUUGACCCUUGGCAGCAAGAUGACCGUUAGCAGCCGUCUUCUC [theeternabot_sameState_MS2_Theo_A_45]	0.0166
UCCUGCAGAGCGGCCGCCACUGUAUUGCGUGAGGAUGACCCAACAUGAGGAUCACCCAUGUUGUUUAGGACCGGGCUUGCCACGA [opmullin%]	0.0212

Returns the measured apparent KD of MS2 coat protein for the input sequence. Input: UAAUCAGUGCCGGUUCUCGGAUCCUCAUGUCGAGGACCGGUACGGCCGCCACUCGAAACAUGAGGAUCACCCAUGUAAUAAUAAU [#09 Exclusion Tryptophan A] 0.116

Returns the measured apparent KD of MS2 coat protein for the input sequence. Input: GUAACACAUGAGGAUCACCCAUGUUCCGAUACCAGUAUUGAAGAUUACCCUUGGCAGCGGGUAGGUCGGAGUGGACGGCCCGAGC [theeternabot_sameState_MS2_Theo_A_8] 0.025

Returns the measured apparent KD of MS2 coat protein for the input sequence. Input: CAAUCUACCACCGGCCUACUGUACACUCGCCGAGGACCGGUACGGCCGCCACUCGACGUUCGACAUGAGGAUCACCCAUGUGGGU [theeternabot_exclusion_MS2_Trp_A_14] 0.2

###

Reported apparent KD of MS2 coat protein values are given for each entry in this list.
Tested on: MS2 coat protein
Test: apparent KD of MS2 coat protein; higher = weaker reporter binding
Settings: Eterna round: R107; input ligand: theophylline 20 uM
Give just the numeric value; nM need not be written.

Consider the reported apparent KD of MS2 coat protein for these sequences:
> print(dat)
                             sequence.chain    assayed.system  reading
1  GGGCAAGAGGGAAGGAGCGUCAGCUGAGUCACAUGAGGAUCACCCAUGUCGCACAUAGUGUGACAGGUAGGUCGCCCUCUACCCU [Esceinan]  MS2 coat protein      167
2  ACAUGAGGAUCACCCAUGUAAUUAACAGAAGGAGCGUGAUGGAUCACAGGUAGGUCGCUGUACUUAGAAAUAACUCUCAUGAAUA [JR_Nu_SSArginiA_Sub024]  MS2 coat protein     27.6

Query sequence follows.
Enter reported apparent KD of MS2 coat protein observed with MS2 coat protein for CUCUUCCGGAAGGAUACCAGCUACAUGAGGAUCACCCAUGUAGGAGCGGGUUUCUAAUGUAGCCCUUGGCAGCCUUAGCCCGUCG [Querarra] 36.5

###

Test system: MS2 coat protein
Assay: apparent KD of MS2 coat protein, switch OFF state (with FMN for OFF switches, without FMN for ON switches); designed switch direction (-1 OFF switch, 1 ON switch): 1; higher = weaker reporter binding
Details: FMN input: 0 or 200 uM; Eterna round: R93 (includes R88 designs)
Please use criterion met whenever apparent KD of MS2 coat protein is not below 30 nM, and criterion not met whenever it is.

sequence_chain	cat
AAAAAACAUGAGGAUCACCCAUGUAAAAAAAACACAGGAUAUCCCUUUUUAAAAAAAAAAGGAGAAGGGUGAAAAA [Nob's Hobby 6 - Jieux - Same State 1]	criterion not met
AAUAUAUUAAGUGAGGAUAUCAAGAAAAAAACAUGAGGAUCACCCAUGUGGGAAACAUGGUAGGGUGAGAAGGUACUUAAUAUAU [Samwise Clockwise 21 - Jieux - Same State 2]	criterion met
CUGGACAUAGUAUAGGAUAUAUGAAUAGUUACAUGAGGAUCACCCAUGUGCAUUUAUAUGCGAACAUAGAAGGGUGGUAGUUAAG [Mat - Same state - Malcolm Mod - D141]	criterion met
AAAAAGUGAUGGUAGGAUAUUGGAAAAGCCACAUGAGGAUCACCCAUGUCAAAAAACCUAAAAAACAAGAAGGGCUGUUAUAAAAA [Same State 2.2]	criterion not met

Hello, I need to know if AAGAAAGAAACGUAGGAUAUCAAGAAUAUAACAUGAGGAUCACCCAUGUAAAUACGAAAGUAUAAUGAGAAGGAUGGAUGAUCUUC [Mod of Mat of Meechl] has measured apparent KD of MS2 coat protein not below 30 nM. Thanks! criterion met

###

Test system: MS2 coat protein
Assay: apparent KD of MS2 coat protein; designed switch direction (-1 OFF switch, 1 ON switch): 1; higher = weaker reporter binding
Conditions: input ligand: microRNA oligo, concentration not stated
Categorized via apparent KD of MS2 coat protein: I = under 30 nM, II = from 30 nM up to 100 nM, III = 100 nM and over

# count of solved cases: 3
sequence_chain	cat
CCUUAACAGUGAGGAUAUCGUUGCGAUAAGUGACGAGAAGGCACUCAUGUGAAAUAAACAUACAUGAGGAUCACCCAUGUUGUG [Omei SS(NG)1 Bv5] (Eterna round: R96, puzzle: Same State NG 1)	II
AAAAUGGUAUGUUACAUGAGGAUCACCCAUGUACGGUCAUCUGAGGAUAUGGUGAUGUAGAAGAAUCAGAAGGCAGACAUUUAA [AK SSNG3-V2-26] (Eterna round: R96, puzzle: Same State NG 3)	I
UGGUACAUGGGAGGAUAUCAUGUAGAAACAUGAGGAUCACCCAUGUAGAUGGCAGCUUUGCUGAAUGAGAAGGCCCAUGUACCU [JL SSNG1 3.58] (Eterna round: R96, puzzle: Same State NG 2)	I

# bin lookup: classify UAUGAAUAGCAAGGAUAUUGAUAACAUGAGGAUCACCCAUGUAAUUGAUCGAGUUAGAUCAGUUACAAGAAGGUGCAAUUGAUU [JR_SSNG2_Sub035] (Eterna round: R96, puzzle: Same State NG 2) by its apparent KD of MS2 coat protein I

# bin lookup: classify AUAGUUGCCGAAGGAUAUGAUGAGGAUCACCCAUCAGAAGGUUGGCUAUUGGGUGGACAUGAGGAUCACCCAUGUCCUUUGGUA (Eterna round: R96, puzzle: Same State NG 1) by its apparent KD of MS2 coat protein III

# bin lookup: classify ACAUGAGAGAAAGGAUAUCUUGUACCUACAUGUGACAUGAGGAUCACCCAUGUGGUAAGUAUGACAGAGAAGGUUCAGAUAUGU [Equivalance 71 - Jieux - Same State NG 2] (Eterna round: R96, puzzle: Same State NG 2) by its apparent KD of MS2 coat protein II

# bin lookup: classify GCUAGAAAUAAUGCCAACAUGAGGAUCACCCAUGUAUGUUGGCAGGAUAUCGUAUGCAAAGCAUACGAGAAGGGCUAAACUAGC [Mat - Same State NG 3 - JL Mod - D9] (Eterna round: R96, puzzle: Same State NG 3) by its apparent KD of MS2 coat protein III

# bin lookup: classify ACCCGCAGCCGUCAGGAUAUGUUCGCGUCAACAUGAGGAUCACCCAUGUGUGACAAGAAGUACACGCAGAAGGGAUCAAUGCGGG [Bienri] (Eterna round: R96, puzzle: Same State 2) by its apparent KD of MS2 coat protein I

# bin lookup: classify UGGAUCUAGGCUUGCCUGGGUCCAUGCUGACAUGAGGAUCACCCAUGUGCAUCCUACAAGCUUUUUGCUUGUCUGUC (Eterna round: R96, puzzle: Sensor for hsa-mir-208a) by its apparent KD of MS2 coat protein III

###

System: K4 kissing-loop RNA reporter;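 note: bound reporter read as fluorescence of individual clusters on recovered sequencing chips by microscopy, with normalized cluster intensities fitted with a binding model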
Test: apparent KD of K4 kissing-loop reporter; higher = weaker reporter binding
Conditions: Eterna round: R107; input ligand: theophylline 20 uM
parameter_measured: apparent KD of K4 kissing-loop reporter (nM)
Give just the numeric value; nM need not be written.

Returns the measured apparent KD of K4 kissing-loop reporter for the input sequence. Input: AUGCGCGCGGCGGCCGCCACUCGCAUGAGAGUGAUGUUCUCGCCGUGCCCGUAAGGGCGCGGUGUGAGGACCGGGCCGGGCUGCG [#2 Same State - Tryptophan B Attempt #21 (HarryS)] 319

Returns the measured apparent KD of K4 kissing-loop reporter for the input sequence. Input: GUUACGCAUGGAAGGAGCGCUCUCCGGCUUAAUAACACAGUGAUGUUGUGAAUUUGCCGAAAGCAGGUAGGUCGCCAUGUGUAAC [Ex Arginine B K4 10] 435

Returns the measured apparent KD of K4 kissing-loop reporter for the input sequence. Input: CGACUAUUUCGAUAGUCGAUAGACACGGAAGGAGCGGGAUUCGUCCCAGGUAGGUCGCCGUGAAGUUGAGUGAUGUUCAACGUGU [Arg A SS t13] 170

# credit: the supplement of paper PMC9170038
